Hello, the source for this data is ChEMBL document CHEMBL1177674, in case you need it.

The reader will find reported IC50 values listed item by item below.
molecular target: KiSS-1 receptor (Homo sapiens, UniProt Q969F8); test: Displacement of [125I]metastin from human GPR54 receptor expressed in CHO cells; format: cell-based
Sequence (Q969F8 whole entry): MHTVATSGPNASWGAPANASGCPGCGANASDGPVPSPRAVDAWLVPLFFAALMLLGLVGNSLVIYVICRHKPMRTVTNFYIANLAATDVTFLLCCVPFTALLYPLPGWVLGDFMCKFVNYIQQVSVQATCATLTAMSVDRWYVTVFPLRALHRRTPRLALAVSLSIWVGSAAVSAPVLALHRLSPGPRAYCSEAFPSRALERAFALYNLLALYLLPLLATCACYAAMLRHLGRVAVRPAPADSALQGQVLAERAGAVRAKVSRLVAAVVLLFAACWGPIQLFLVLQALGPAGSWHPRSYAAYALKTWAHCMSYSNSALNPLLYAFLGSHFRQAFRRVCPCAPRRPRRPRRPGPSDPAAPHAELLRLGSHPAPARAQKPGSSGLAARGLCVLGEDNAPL
Please give a number only; it is taken to be in nM.

CCC(CC(=O)Nc1cccc(-c2cc(-c3ccc(F)cc3O)nc(NC(=O)c3ccco3)c2C#N)c1)N(CC)CC (racemic) = 22
CC(C)NC(C)CC(=O)Nc1cccc(-c2cc(-c3ccc(F)cc3O)nc(NC(=O)c3ccco3)c2C#N)c1 (racemic) = 9.7
N#Cc1c(-c2cccc(N3CCCNCC3)c2)cc(-c2ccc(F)cc2O)nc1NC(=O)c1ccco1 = 7.3
CCN(CC)C(C)CC(=O)Nc1cccc(-c2cc(-c3ccc(F)cc3O)nc(NC(=O)c3ccco3)c2C#N)c1 (racemic) = 17
N#Cc1c(-c2cccc(N3CCNCC3)c2)cc(-c2ccc(F)cc2O)nc1NC(=O)c1ccco1 = 3.6

Note: attention shifts to another entry.
**Query** Find the recorded IC50 belonging to CC(CC(=O)Nc1cccc(-c2cc(-c3ccc(F)cc3O)nc(NC(=O)c3ccco3)c2C#N)c1)N(C)C (racemic) and report it.
**Result** 18
